Test system: VEEV
Assay: microbe, parasite or virus in culture
Assay type: cell-based
Conditions: Venezuelan equine encephalitis virus, SW13, read-out: IC50 VEEV
For each record, write down the corresponding IC50.
Answers are plain numbers, in nM.

Known IC50 results, listed for orientation:
Cc1ccc(NC(=O)COc2ccccc2Cc2ccccc2)c(C(=O)O)c1 [Example 1]: 100
COc1ccc(Nc2ccc(Oc3ccccc3)cc2)c(C(=O)O)c1 [Example 4]: 220

# batch size: 4; output IC50 per entry
1. CCC(C)c1ccccc1OCCCC(=O)Nc1ccccc1C(=O)O (racemic) [Example 3]
2. CC(C)c1ccccc1SCC(=O)Nc1ccccc1C(=O)O [Example 2]
3. CCCCCc1ccc(C#Cc2ccc(NC(=O)C(C)C)c(C(=O)O)c2)cc1 [Example 9]
4. CCCCCc1ccc(C#Cc2ccc(NC(=O)CC)c(C(=O)O)c2)cc1 [Example 8]

130
1500
14
13
